// provenance: PubChem BioAssay AID248

test system: L1210 leukemia ip in BDF1 mice, survival T/C; experiment: NCI In Vivo Anticancer Drug Screen. Data for tumor model L1210 Leukemia (intraperitoneal) in B6D2F1 (BDF1) mice; settings: endpoint: mean survival time; dose: 100.0 mg/kg/injection; schedule: Q01DX001 (ip); vehicle: saline with Tween-80; higher = longer survival
Toxic doses and inconclusive results are not listed.
Measured quantity: T/C

Give a short answer stating reported T/C for CC(=O)OC1OC2COC(C)(C)OCC2C(OC(C)=O)C1OC(C)=O (stereo not drawn) .
96 % of control

Please look at this compound and report its T/C: `Nc1ncnc(N)c1NC(=O)c1ccc(Cl)cc1`
120 % of control

Given `Nc1cccc(OCCc2ccccc2)c1` , respond with its T/C.
96 % of control

Quickly give me recorded T/C for `CCCCP(=O)(CCCC)C1CCCC1`
103 % of control

Provide only the value of recorded T/C for `O=C1c2c(c(-c3ccccc3)c3ccccc3c2-c2ccccc2)C(c2ccccc2)c2c1c(-c1ccccc1)c1ccccc1c2-c1ccccc1`
111 % of control

###

Listing of recorded T/C by entry.
system: L1210 leukemia ip in BDF1 mice, survival T/C; experiment: NCI In Vivo Anticancer Drug Screen. Data for tumor model L1210 Leukemia (intraperitoneal) in B6D2F1 (BDF1) mice; settings: endpoint: mean survival time; dose: 200.0 mg/kg/injection; schedule: Q01DX001 (ip); vehicle: saline; higher = longer survival
Toxic doses and inconclusive results are not listed.

INSERT INTO results (chemical_string, result) VALUES
  ('CCCCn1cnc2c(=O)n(C)c(=O)n(C)c21', '94 % of control'),
  ('Nc1cccn2ncnc12', '104 % of control');

Continue with the next compound.
Fetch value of T/C on L1210 leukemia ip in BDF1 mice, survival T/C for `O=C1c2cccc(S(=O)(=O)O)c2C(=O)c2cccc(S(=O)(=O)O)c21` .
111 % of control

###

Recorded T/C for the following compounds
tested on: L1210 leukemia ip in BDF1 mice, survival T/C; assay: NCI In Vivo Anticancer Drug Screen. Data for tumor model L1210 Leukemia (intraperitoneal) in B6D2F1 (BDF1) mice; conditions: endpoint: mean survival time; dose: 100.0 mg/kg/injection; schedule: Q01DX009 (ip); vehicle: saline with Tween-80; higher = longer survival
Toxic doses and inconclusive results are not listed.

Would you please look over these solved cases?
INSERT INTO assay_data (compound, result) VALUES
  ('[NH-]C(CC(N)=O)C(=O)O.[NH-]C(CC(N)=O)C(=O)O.[Pd+2] (centres undefined)', '101 % of control'),
  ('O=c1[nH]c(=O)c2ccccc2o1', '105 % of control'),
  ('CCOC(=S)SCCC(=O)O', '95 % of control'),
  ('C=C1N(C)c2ccc(Cl)cc2C1(C)C', '98 % of control'),
  ('C/C=C(\C)C(=O)Nc1cccc(OC(=O)NC)c1', '91 % of control');

Query T/C for `CC1(C)C(c2ccccc2)=NN=C1c1ccccc1`
93 % of control

Note down T/C recorded for `COc1cccc2sc3ccccc3c(=O)c12`
102 % of control

Report measured T/C; entry is CC(=O)C1CCC2C3=CC=C4CC(OC(=O)C5CCCCC5)CCC4(C)C3=CCC12C (centres undefined)
100 % of control

Specify T/C for CC(=O)OC1C=CS(=O)(=O)C1 (centres undefined) and stop.
94 % of control

###

system: L1210 leukemia ip in BDF1 mice, survival T/C; assay: NCI In Vivo Anticancer Drug Screen. Data for tumor model L1210 Leukemia (intraperitoneal) in B6D2F1 (BDF1) mice; conditions: endpoint: mean survival time; dose: 200.0 mg/kg/injection; schedule: Q01DX009 (ip); vehicle: saline; higher = longer survival
Inconclusive results and toxic doses are left out.
Measured quantity: T/C

For the compound `OCc1nccn1Cc1ccccc1` , give its measured T/C value.
108 % of control

State its T/C: `COc1cc(C(=O)OCCCN2CCOCC2)cc(OC)c1OC`
105 % of control

Supply T/C value. Item: O=C1CCCCCCCCC1O (stereo not drawn)
114 % of control

###

The reader will find reported T/C values listed item by item below.
System: L1210 leukemia ip in BDF1 mice, survival T/C
Experiment: NCI In Vivo Anticancer Drug Screen. Data for tumor model L1210 Leukemia (intraperitoneal) in B6D2F1 (BDF1) mice
Conditions: endpoint: mean survival time; dose: 100.0 mg/kg/injection; schedule: Q01DX001 (ip); vehicle: carboxymethylcellulose (CMC); higher = longer survival
Experimental: The antitumor activity of compounds was measured in mice bearing transplantable tumors. Survival or tumor size were measured and the results are expressed as the measurement made in the treated group (T) divided by the measurement made in the vehicle treated control group (C). The tumor model used in this assay is L1210 Leukemia (intraperitoneal) in B6D2F1 (BDF1) mice
Toxic doses and inconclusive results are not listed.

Examples with answers:
INSERT INTO measurements (compound, result) VALUES
  ('CCOc1ccccc1C1N2CCN(CC2)C(c2ccccc2OCC)N2CCN1CC2 (stereo not given)', '100 % of control'),
  ('CCCCCC(=O)OC1CCCCC1C1CCCCC1 (stereo not given)', '94 % of control'),
  ('COc1cc([N+](=O)[O-])c2nc(Cl)ccc2c1', '100 % of control');

Given the compound `Oc1c(Cl)cc(Cl)cc1C1N(Cc2ccc(N(CCCl)CCCl)cc2Cl)CCCN1Cc1ccc(N(CCCl)CCCl)cc1Cl` , write its reported T/C.
105 % of control

Identify T/C associated with the compound CC1=CC(=O)CC(c2ccccc2)C1 (stereo not given)
105 % of control

Please indicate T/C recorded for `c1ccc2c3c([nH]c2c1)CCC3`
93 % of control

Specify measured T/C for `O=C(Nc1cc(Cl)cc(Cl)c1)C(Cl)Cl` .
109 % of control

Supply T/C value. Item: `Cc1ccc(C(=O)OCC(C)C)s1`
98 % of control

State its T/C: `COc1ccc(C(C)=O)cc1CCCOC(C)=O`
95 % of control

Determine from records and report T/C for `CCOC(=O)C(NC(C)=O)(C(=O)OCC)C(=O)c1ccc(Cl)cc1`
89 % of control

###

System: L1210 leukemia ip in BDF1 mice, survival T/C
Experiment: NCI In Vivo Anticancer Drug Screen. Data for tumor model L1210 Leukemia (intraperitoneal) in B6D2F1 (BDF1) mice
Details: endpoint: mean survival time; dose: 200.0 mg/kg/injection; schedule: Q04DX003 (ip); vehicle: saline with Tween-80; higher = longer survival
Protocol: The antitumor activity of compounds was measured in mice bearing transplantable tumors. Survival or tumor size were measured and the results are expressed as the measurement made in the treated group (T) divided by the measurement made in the vehicle treated control group (C). The tumor model used in this assay is L1210 Leukemia (intraperitoneal) in B6D2F1 (BDF1) mice
Inconclusive results and toxic doses are left out.
We begin with a simple list: items and their reported T/C.

Study these solved cases before continuing.
INSERT INTO assay_data (molecule, result) VALUES
  ('CC(C)(Cl)N=Nc1ccc([N+](=O)[O-])cc1[N+](=O)[O-]', '98 % of control'),
  ('CC(Cl)(Cl)CC(O)(C(F)(F)F)C(F)(F)F', '91 % of control'),
  ('COC(=O)C(CSCSC)NC(=O)/C=C\c1ccccc1 (centres undefined)', '97 % of control'),
  ('CCN(C(=O)c1cccc(C(=O)N(CC)c2ccccc2C)c1)c1ccccc1C', '90 % of control'),
  ('Cc1ccc(S(=O)(=O)N/N=C/c2c(O)ccc3ccccc23)cc1', '94 % of control');

Moving on to another molecule below.
Give the measured T/C for `CSc1ncc(C#N)c(N)n1`
94 % of control

###

system: L1210 leukemia ip in BDF1 mice, survival T/C; test: NCI In Vivo Anticancer Drug Screen. Data for tumor model L1210 Leukemia (intraperitoneal) in B6D2F1 (BDF1) mice; details: endpoint: mean survival time; dose: 100.0 mg/kg/injection; schedule: Q01DX001 (ip); vehicle: saline with Tween-80; higher = longer survival
Toxic doses and inconclusive results are not listed.
Measured quantity: T/C

INSERT INTO results (compound, result) VALUES
  ('FC(F)(F)c1nc2nc(Cl)c(Cl)nc2[nH]1', '110 % of control'),
  ('COc1cc(C(=O)O)c(Br)c(OC)c1OC', '103 % of control'),
  ('C=CCCCCCCCCCC(CCCCCC)C(=O)O (stereo not drawn)', '101 % of control');

Annotate the compound `CCOC(=O)c1ccc(NC(=O)Nc2cc(OC)c(Cl)cc2OC)cc1` with its measured T/C.
93 % of control

###

In this section we review reported T/C values for a set of molecules.
test system: L1210 leukemia ip in BDF1 mice, survival T/C; assay: NCI In Vivo Anticancer Drug Screen. Data for tumor model L1210 Leukemia (intraperitoneal) in B6D2F1 (BDF1) mice; details: endpoint: mean survival time; dose: 200.0 mg/kg/injection; schedule: Q01DX009 (ip); vehicle: saline; higher = longer survival
Toxic doses and inconclusive results are not listed.

INSERT INTO results (chemical_string, assay_target, result) VALUES
  ('CCN(C)O', 'L1210 leukemia ip in BDF1 mice, survival T/C', '111 % of control'),
  ('O=C1CCC2(CCC(=O)O2)O1', 'L1210 leukemia ip in BDF1 mice, survival T/C', '92 % of control'),
  ('CC(=O)Oc1cc(Cl)c(Cl)cc1Cl', 'L1210 leukemia ip in BDF1 mice, survival T/C', '100 % of control');

Give the reported T/C for this molecule. `C(=C\c1ccnc2ccccc12)/c1ccccc1`
101 % of control

Supply measured T/C of `O=C1CC(=O)N2C=CC=CC2=N1` in your reply.
95 % of control
